Target: Heat shock factor protein 1 (Mus musculus, UniProt P38532)
Sequence (P38532 whole entry): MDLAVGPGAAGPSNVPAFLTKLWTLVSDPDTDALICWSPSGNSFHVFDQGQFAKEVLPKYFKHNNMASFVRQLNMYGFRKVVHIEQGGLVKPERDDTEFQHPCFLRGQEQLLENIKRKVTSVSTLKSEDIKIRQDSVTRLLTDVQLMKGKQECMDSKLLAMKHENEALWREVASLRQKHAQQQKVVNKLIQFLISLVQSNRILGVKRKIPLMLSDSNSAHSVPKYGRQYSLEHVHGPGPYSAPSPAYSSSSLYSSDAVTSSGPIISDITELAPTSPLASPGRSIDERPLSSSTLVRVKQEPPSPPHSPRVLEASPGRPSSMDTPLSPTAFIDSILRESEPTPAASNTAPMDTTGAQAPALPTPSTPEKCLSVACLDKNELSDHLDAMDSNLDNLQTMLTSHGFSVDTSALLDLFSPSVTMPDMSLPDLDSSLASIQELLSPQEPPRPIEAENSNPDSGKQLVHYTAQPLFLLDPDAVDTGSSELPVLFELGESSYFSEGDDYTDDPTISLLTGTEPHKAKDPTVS
Assay: enhancement of HSF1-driven luciferase signal – cell-based, NIH3T3, luminescence, dose retest, confirmation (AID 435004);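 note: stress induced by proteasome inhibitor MG132 added 30 min after compound; luciferase reporter driven by HSF1 response element in NIH3T3 cells; actives raise luminescence as potentiators of the MG132 stress response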
Format: functional
Active and inactive are the calls of the source. Cut-off read from the data, not from the text of the source: actives have a measured EC50 and inactives only a lower limit.
Give your call using only these classes: active, inactive

Use these answered entries as a reference point.
{"Compound": "O=C(/C=C/Sc1ccccc1)c1ccc(Cl)cc1", "Category Label": "active"}
{"Compound": "Cc1ccc(C(=O)CNc2ccc(Cl)cc2)cc1", "Category Label": "inactive"}
{"Compound": "COCCNC(=S)N/N=C/c1ccc(N2CCOCC2)cc1", "Category Label": "inactive"}
{"Compound": "COc1ccc(C2=CC(=O)CC(c3ccc(F)cc3)C2)cn1 (configuration not stated)", "Category Label": "inactive"}
{"Compound": "O=C(Nc1ccc(-c2nc3ncccc3o2)cc1)c1ccc([N+](=O)[O-])o1", "Category Label": "active"}

input: Fill in: this test's call for C=C1CCC[C@]2(C)C[C@H]3OC(=O)C(CNC(CC)CO)[C@H]3CC12 (some centres not stated) is ___
output: inactive

input: Query: recorded result category for O=C(O)c1cccnc1Sc1ccccc1 in this test
output: inactive

input: Record request — test call for COC(=O)c1cccc(C(=O)N2CCCC(C(=O)c3ccccc3OC)C2)c1 (configuration not stated)
output: inactive

input: Which outcome did this test record for the compound COc1c(Br)cc(Br)cc1C(=O)O ?
output: inactive

input: Returns: the outcome recorded for COc1cc(OC)cc(-c2nnc(Sc3ccc(C=O)cc3[N+](=O)[O-])o2)c1 in this assay.
output: inactive

input: # fetch the recorded call for COc1ccc(C(=O)NCC(=O)OCC(=O)c2ccc3c(c2)NC(=O)CO3)cc1 here
output: inactive

input: # outcome recorded in this test, key = c1ccc(CCc2ccncc2)cc1
output: inactive

###

Could you please report measured EC50 for the items listed next?
Test: Luminescence Cell-Based Dose Confirmation HTS to Identify Inhibitors of Platelet Dense Granule Release. [Related pubchem assays: 1663 (Primary HTS), 1678 (Summary of Project)]
Assay type: functional
The source made the active and inactive calls. Cut-off read from the data, not from the text of the source: actives have a measured EC50 and inactives only a lower limit.

For every record below, what is its EC50?
1. CCOc1ccc(CN(C(=O)c2oc3ccccc3c2C)C2CCS(=O)(=O)C2)cc1 (stereo not given)
2. CCCCc1ccc(Nc2nc(N3CCOCC3)nc(N3CCOCC3)n2)cc1
3. COc1cccc(-c2nc(C[S+]([O-])CC(=O)NCCc3ccc(C)cc3)c(C)o2)c1 (stereo not given)
4. Cc1c(C(=O)N2CCCCC2)c(S(=O)(=O)N(C)Cc2ccccc2)c(C)n1C
5. COc1ccc(C(=O)Nc2ccc(N3CCOCC3)cc2)cc1OC

output:
> 112 µM (not active)
> 112 µM (not active)
> 112 µM (not active)
> 112 µM (not active)
1.95 µM (active)

All figures here come from ChEMBL document CHEMBL1201862.
